Each item that follows carries a reported IC50.
# procedure.details: Growth inhibition of human 518A2 cells after 24 hrs by MTT assay
# Assay type: functional, cell-based
# experimental.conditions: 518A2, 24 h
Provide only the numeric value, understood in nM.

In the examples that follow, each entry is paired with its recorded IC50.
CCn1cc(Cl)c2cc(-c3c(-c4cc(Br)c(OC)c(OC)c4)ncn3C)ccc21: 216
COc1cc(-c2ncn(C)c2-c2ccc3c(c2)c(Cl)cn3C)cc(I)c1OC: 56.7
CCn1cc(Cl)c2cc(-c3c(-c4cc(I)c(OC)c(OC)c4)ncn3C)ccc21: 211

[ask] Please report the recorded IC50 for `COc1cc(-c2ncn(C)c2-c2ccc3c(c2)c(Cl)cn3C)cc(OC)c1OC` .
[reply] 65.4

[ask] Moving on to the next molecule: `COc1cc(-c2ncn(C)c2-c2ccc3c(c2)c(Cl)c(Cl)n3C)cc(Br)c1OC`
[reply] 292

FYI, the data here is from ChEMBL document CHEMBL3822382.
